Where do the numbers come from? From paper PMC7531004.

Tested on: Streptococcus pyogenes SSI-9
Assay: Antibacterial activity assay of bead-derived peptides (three concentrations)
Assay type: cell-based
Parameters: key: +++: inhibition by the 640-fold diluted peptide solution; ++: inhibition by the 160-fold diluted solution; +: inhibition by the 40-fold diluted solution; -: no inhibition
Details: S. pyogenes, bead-derived peptide solution, three concentrations
Where a SMILES comes first, the peptide text is derived from it. [ ]: non-standard residue; d: D form. The star is where a group is joined. NHCH2CH2OH = OCCN*; For = O=C*
readout: antibacterial activity

Some solved cases for reference:
CC(C)C[C@@H](NC(=O)[C@H](C)NC(=O)CNC(=O)[C@@H](NC=O)C(C)C)C(=O)N[C@@H](C)C(=O)N[C@@H](C(=O)N[C@H](C(=O)N[C@@H](C(=O)N[C@@H](Cc1c[nH]c2ccccc12)C(=O)N[C@@H](C(=O)N[C@@H](Cc1c[nH]c2ccccc12)C(=O)N[C@@H](C(=O)N[C@@H](Cc1c[nH]c2ccccc12)C(=O)N[C@H](CC(C)C)C(=O)N[C@@H](Cc1c[nH]c2ccccc12)C(=O)NCCO)C(C)C)C(C)C)C(C)C)C(C)C)C(C)C [compound 9223] (For-VGA[dL]A[dV]V[dV]W[dV]W[dV]W[dL]W-NHCH2CH2OH) : +
CC(C)C[C@@H](NC(=O)[C@H](Cc1c[nH]c2ccccc12)NC(=O)[C@H](NC(=O)[C@H](Cc1c[nH]c2ccccc12)NC(=O)[C@@H](CC(C)C)NC(=O)[C@H](Cc1c[nH]c2ccccc12)NC(=O)[C@H](NC(=O)[C@@H](NC(=O)[C@H](NC(=O)[C@H](C)NC(=O)[C@H](NC(=O)[C@H](C)NC(=O)CNC(=O)[C@@H](NC=O)C(C)C)C(C)C)C(C)C)C(C)C)C(C)C)C(C)C)C(=O)N[C@@H](Cc1c[nH]c2ccccc12)C(=O)NCCO [compound 2994] (For-VGA[dV]A[dV]V[dV]W[dL]W[dV]W[dL]W-NHCH2CH2OH) : ++
CC(C)C[C@@H](NC(=O)[C@H](C)NC(=O)CNC(=O)[C@@H](NC=O)C(C)C)C(=O)N[C@@H](C)C(=O)N[C@@H](C(=O)N[C@H](C(=O)N[C@H](CC(C)C)C(=O)N[C@@H](Cc1c[nH]c2ccccc12)C(=O)N[C@H](CC(C)C)C(=O)N[C@@H](Cc1c[nH]c2ccccc12)C(=O)N[C@@H](C(=O)N[C@@H](Cc1c[nH]c2ccccc12)C(=O)N[C@@H](C(=O)N[C@@H](Cc1c[nH]c2ccccc12)C(=O)NCCO)C(C)C)C(C)C)C(C)C)[C@H](C)O [compound 1898] (For-VGA[dL]A[dT]V[dL]W[dL]W[dV]W[dV]W-NHCH2CH2OH) : -
CC(C)C[C@@H](NC(=O)[C@H](C)NC(=O)[C@H](NC(=O)[C@H](C)NC(=O)CNC(=O)[C@@H](NC=O)C(C)C)C(C)C)C(=O)N[C@H](C(=O)N[C@H](CC(C)C)C(=O)N[C@@H](Cc1c[nH]c2ccccc12)C(=O)N[C@H](CC(C)C)C(=O)N[C@@H](Cc1c[nH]c2ccccc12)C(=O)N[C@@H](C(=O)N[C@@H](Cc1c[nH]c2ccccc12)C(=O)N[C@H](CC(C)C)C(=O)N[C@@H](Cc1c[nH]c2ccccc12)C(=O)NCCO)C(C)C)C(C)C [compound 3255] (For-VGA[dV]A[dL]V[dL]W[dL]W[dV]W[dL]W-NHCH2CH2OH) : +
CC(C)C[C@@H](NC(=O)[C@H](C)NC(=O)[C@H](NC(=O)[C@H](C)NC(=O)CNC(=O)[C@@H](NC=O)C(C)C)C(C)C)C(=O)N[C@H](C(=O)N[C@H](CC(C)C)C(=O)N[C@@H](Cc1c[nH]c2ccccc12)C(=O)N[C@@H](C(=O)N[C@@H](Cc1c[nH]c2ccccc12)C(=O)N[C@H](CC(C)C)C(=O)N[C@@H](Cc1c[nH]c2ccccc12)C(=O)N[C@H](CC(C)C)C(=O)N[C@@H](Cc1c[nH]c2ccccc12)C(=O)NCCO)C(C)C)C(C)C [compound 5699] (For-VGA[dV]A[dL]V[dL]W[dV]W[dL]W[dL]W-NHCH2CH2OH) : +
CC(C)C[C@@H](NC(=O)[C@H](Cc1c[nH]c2ccccc12)NC(=O)[C@@H](CC(C)C)NC(=O)[C@H](Cc1c[nH]c2ccccc12)NC(=O)[C@@H](CC(C)C)NC(=O)[C@H](Cc1c[nH]c2ccccc12)NC(=O)[C@@H](CC(C)C)NC(=O)[C@@H](NC(=O)[C@H](NC(=O)[C@H](C)NC(=O)[C@H](NC(=O)[C@H](C)NC(=O)CNC(=O)[C@@H](NC=O)C(C)C)C(C)C)C(C)C)C(C)C)C(=O)N[C@@H](Cc1c[nH]c2ccccc12)C(=O)NCCO [compound 3308] (For-VGA[dV]A[dV]V[dL]W[dL]W[dL]W[dL]W-NHCH2CH2OH) : ++

*Q* Give the measured antibacterial activity for CC(C)C[C@@H](NC(=O)[C@H](C)NC(=O)CNC(=O)[C@@H](NC=O)C(C)C)C(=O)N[C@@H](C)C(=O)N[C@@H](C(=O)N[C@H](C(=O)N[C@H](CC(C)C)C(=O)N[C@@H](Cc1c[nH]c2ccccc12)C(=O)N[C@@H](C(=O)N[C@@H](Cc1c[nH]c2ccccc12)C(=O)N[C@@H](C(=O)N[C@@H](Cc1c[nH]c2ccccc12)C(=O)N[C@H](CC(C)C)C(=O)N[C@@H](Cc1c[nH]c2ccccc12)C(=O)NCCO)[C@H](C)O)C(C)C)C(C)C)C(C)C [compound 201] (For-VGA[dL]A[dV]V[dL]W[dV]W[dT]W[dL]W-NHCH2CH2OH)
*A* -

*Q* Respond only with antibacterial activity recorded for CNC(=O)C[C@@H](NC(=O)[C@@H](NC(=O)[C@@H](CC(C)C)NC(=O)[C@H](C)NC(=O)[C@H](NC(=O)[C@H](C)NC(=O)CNC(=O)[C@@H](NC=O)C(C)C)C(C)C)C(C)C)C(=O)N[C@@H](Cc1c[nH]c2ccccc12)C(=O)N[C@@H](C(=O)N[C@@H](Cc1c[nH]c2ccccc12)C(=O)N[C@@H](C(=O)N[C@@H](Cc1c[nH]c2ccccc12)C(=O)N[C@H](CC(C)C)C(=O)N[C@@H](Cc1c[nH]c2ccccc12)C(=O)NCCO)C(C)C)C(C)C [compound 11226] (For-VGA[dV]A[dL]V[dD](NHMe)W[dV]W[dV]W[dL]W-NHCH2CH2OH)
*A* -
